The following binders are shown together with reported pKd values.
# SYSTEM_NAME: PriB (Klebsiella pneumoniae MGH78578, UniProt A6THB2 1-104)
# Sequence (A6THB2 whole entry): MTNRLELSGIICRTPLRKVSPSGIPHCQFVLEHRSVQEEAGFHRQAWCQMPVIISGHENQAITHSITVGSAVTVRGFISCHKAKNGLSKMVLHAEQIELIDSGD
# ASSAY_SUMMARY: fluorescence anisotropy; apparent Kd; 1 mM Mg2+; 20 mM Tris-HCl pH 8, 50 mM NaCl, 4% glycerol, 1 mM MgCl2, 1 mM beta-mercaptoethanol, 0.1 mg/ml BSA, 1 nM DNA, 25 C
# CONDITION_LABEL: protein: recombinant; tags: N-terminal His6 (pET28b); chain copies: 2; label: 3'-fluorescein; single strand
Note: pKd values are expressed as the negative base-10 logarithm of concentration in M.

{"BINDER": "GCGTGGGTAATTGTGCTTCAATGGACTGAC (ssDNA) [30-mer]", "RESULT_NUMBER": 7.35}

Asked: Reported pKd for GCCGTGATCACCAATGCAGATTGACGAACCTTTGCTCCAGTAACC (ssDNA) [45-mer] : what is it?
Given back: 7.21

Asked: Moving on to TAGCAATGTAATCGT (ssDNA) [15-mer]
Given back: 7.30
